assay: Novel Modifiers of Survival Motor Neuron (SMN) Protein: Gene Identification via Genome-wide siRNA Screen; conditions: HEK293T SMN2-luciferase reporter, siRNA knockdown, 72 h; actives lie on both sides;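 also: luminescence tracks full-length SMN protein made from the SMN2 reporter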
Hit rate of the full screen: of about 31,000 sequences, about 1,400 (4.5%) were called active. Many of the other results were omitted from the sample, so actives are more common in it than they were.
Listing of entries alongside the reported median seed-adjusted z-score.

Would you please look over these solved cases?
>  <record_sequence>
CCGGGUUAAUUACCACCUUTT against MTHFR

>  <value_kind>
median seed-adjusted z-score

>  <result>
0 (inactive)

$$$$
>  <record_sequence>
CGAUGGACAGUGUCUCUUATT against ALG6

>  <value_kind>
median seed-adjusted z-score

>  <result>
0.106 (inactive)

$$$$

// median seed-adjusted z-score lookup, sequence = GCGACUGUCUCGACAGAUATT against HTT , result: -0.234 (inactive)

// median seed-adjusted z-score lookup, sequence = GUAUGGAGAUCUCUACGGATT against RYR3 , result: 0 (inactive)

// median seed-adjusted z-score lookup, sequence = CUAUGACCCUUACCCGUAUTT against FMOD , result: -1.32 (active)

// median seed-adjusted z-score lookup, sequence = GCACUUAAGGAAUGACAGATT against CDY2A , result: 0.75 (inactive)

----------
Listing of entries alongside the reported median seed-adjusted z-score.
assay: Novel Modifiers of Survival Motor Neuron (SMN) Protein: Gene Identification via Genome-wide siRNA Screen; settings: HEK293T SMN2-luciferase reporter, siRNA knockdown, 72 h; actives lie on both sides;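 also: luminescence tracks full-length SMN protein made from the SMN2 reporter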
In all, about 31,000 sequences went through this assay and about 1,400 (4.5%) were called active. The sample as a whole holds a higher share of actives than the screen did.

Would you please look over these solved cases?
>  <record_sequence>
CAUCCAUUCUACAUCCGUATT against VHL

>  <result>
-0.0797 (inactive)

$$$$
>  <record_sequence>
CAAUGAACACUACUAACCATT against IL31RA

>  <result>
0.36 (inactive)

$$$$
>  <record_sequence>
GCUUCUGAAAUGAACCGAATT against DDHD2

>  <result>
0.447 (inactive)

$$$$
>  <record_sequence>
GGUAUUCCUGUUCAACAAATT against ZNF235

>  <result>
0.348 (inactive)

$$$$
>  <record_sequence>
GCACGCGGCUAUACAAUCATT against SLC25A34

>  <result>
-0.256 (inactive)

$$$$

Let us examine a further case.
// median seed-adjusted z-score lookup, sequence = GCUUUACAUGGUUUUCGAATT against CASK , result: -0.422 (inactive)

----------
Listing of entries alongside the reported median seed-adjusted z-score.
Test: Novel Modifiers of Survival Motor Neuron (SMN) Protein: Gene Identification via Genome-wide siRNA Screen;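 also: luminescence tracks full-length SMN protein made from the SMN2 reporter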
Conditions: HEK293T SMN2-luciferase reporter, siRNA knockdown, 72 h; actives lie on both sides
Procedure: Spinal muscular atrophy (SMA) is the most common neuromuscular autosomal recessive disorder and one of the leading genetic causes of infant death. […] Briefly, 1 pmol of each siRNA was spotted to a well of a 384-well plate (Corning, Corning, NY) and 20 microL of serum-free DMEM containing […] of Lipofectamine RNAiMax (Life Technologies, Carlsbad, CA) was then added to each well. […] Raw luminescence reads were normalized to Ambion(R) Silencer(R) Negative Control #2 siRNA, then log10 transformed. […]
The whole screen tested about 31,000 sequences, of which about 1,400 (4.5%) were called active. The entries come from a sample that favours actives as a whole.

>  <record_sequence>
CGGAUUGUCUAUUGCAUCATT against CALCRL

>  <median seed-adjusted z-score>
0.28 (inactive)

$$$$
>  <record_sequence>
GCGGAGCAUUUGCAACAAATT against NR6A1

>  <median seed-adjusted z-score>
-0.287 (inactive)

$$$$
>  <record_sequence>
GCCUUGUAAAAAUCAACUUTT against ZNF528

>  <median seed-adjusted z-score>
-0.0746 (inactive)

$$$$
>  <record_sequence>
GAUUGUCAAUGGGUGUAUUTT against AOF1

>  <median seed-adjusted z-score>
-0.211 (inactive)

$$$$
>  <record_sequence>
CAUUUAUGACAAUCGGAUATT against OGT

>  <median seed-adjusted z-score>
0.411 (inactive)

$$$$
>  <record_sequence>
GCAAGGAAGAAAUUUGUGATT against ERCC1

>  <median seed-adjusted z-score>
-0.566 (inactive)

$$$$
>  <record_sequence>
GCCGCUUUCGGAAUAAGAUTT against DGKZ

>  <median seed-adjusted z-score>
0 (inactive)

$$$$
>  <record_sequence>
CCAUGCUGGAGAUCAAGAATT against PRKAG3

>  <median seed-adjusted z-score>
-1.03 (active)

$$$$

// median seed-adjusted z-score lookup, sequence = CGAAUAUACCAGGACGAAATT against SATB1 , result: 0 (inactive)

----------
assay: Novel Modifiers of Survival Motor Neuron (SMN) Protein: Gene Identification via Genome-wide siRNA Screen; details: HEK293T SMN2-luciferase reporter, siRNA knockdown, 72 h; actives lie on both sides;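 also: luminescence tracks full-length SMN protein made from the SMN2 reporter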
Hit rate of the full screen: of about 31,000 sequences, about 1,400 (4.5%) were called active. The sample as a whole holds a higher share of actives than the screen did.
Threshold rule: median seed-adjusted z-score greater than or equal to 0 is True; below that, False.

>  <record_sequence>
GGACCUCAAAGUUGUCUAUTT against AP1S1

>  <cat>
False

$$$$
>  <record_sequence>
GGGCGAGCAUUUUCGAGAATT against USP7

>  <cat>
True

$$$$
>  <record_sequence>
GUACUGGAGUGAUGAGUUUTT against PARP12

>  <cat>
False

$$$$
>  <record_sequence>
GGGACAUCCUUUCCGGAAATT against NDUFS3

>  <cat>
False

$$$$
>  <record_sequence>
AAGUUAGUCCUAAAGUGUATT against UCHL1

>  <cat>
False

$$$$

Q) Check this sequence for median seed-adjusted z-score at or above 0: GCAUCACACUCACCAACUATT against GPR124
A) True

Q) Check this sequence for median seed-adjusted z-score at or above 0: CCUCGAUUCUUAAAGACGATT against RELN
A) True

Q) Check this sequence for median seed-adjusted z-score at or above 0: GGCCUUACCAAUCAUCAUUTT against SLC28A2
A) False

Q) Check this sequence for median seed-adjusted z-score at or above 0: CUCACCUACUGGAACCUGATT against ZBED4
A) False

Q) Check this sequence for median seed-adjusted z-score at or above 0: CGGUAUGCCUGUGACGACATT against FCER2
A) False

Q) Check this sequence for median seed-adjusted z-score at or above 0: CAUUAUCACUGGUGCACUUTT against CHN1
A) True

----------
test: Novel Modifiers of Survival Motor Neuron (SMN) Protein: Gene Identification via Genome-wide siRNA Screen; settings: HEK293T SMN2-luciferase reporter, siRNA knockdown, 72 h; actives lie on both sides;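 also: luminescence tracks full-length SMN protein made from the SMN2 reporter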
In all, about 31,000 sequences went through this assay and about 1,400 (4.5%) were called active.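 How the source made its calls: active means median seed-adjusted z-score above 1 or below -1; inactive means the rest.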 This excerpt belongs to a sample that is enriched for actives.
Result category, one only: True (active), False (inactive)

>  <record_sequence>
GGAGUGUGAUCGACCCUCATT against KRTAP5-5

>  <cat>
True

$$$$
>  <record_sequence>
GGUGUUGAGUUUCUGCAAATT against CHMP1A

>  <cat>
False

$$$$
>  <record_sequence>
GAACUGACAAGCUUAGUAATT against SAP18

>  <cat>
True

$$$$
>  <record_sequence>
CACCAGAUCUACCAGUUCATT against ADM

>  <cat>
False

$$$$
>  <record_sequence>
GUGUCUGGAUUUUCACUGATT against F11

>  <cat>
False

$$$$

Q) Record request — test call for GAGGCAGUCUUAGAGGAAATT against SPATA21
A) True

----------
Experiment: Novel Modifiers of Survival Motor Neuron (SMN) Protein: Gene Identification via Genome-wide siRNA Screen;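 also: luminescence tracks full-length SMN protein made from the SMN2 reporter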
Conditions: HEK293T SMN2-luciferase reporter, siRNA knockdown, 72 h; actives lie on both sides
Method: Spinal muscular atrophy (SMA) is the most common neuromuscular autosomal recessive disorder and one of the leading genetic causes of infant death. […] Briefly, 1 pmol of each siRNA was spotted to a well of a 384-well plate (Corning, Corning, NY) and 20 microL of serum-free DMEM containing […] of Lipofectamine RNAiMax (Life Technologies, Carlsbad, CA) was then added to each well. […] Raw luminescence reads were normalized to Ambion(R) Silencer(R) Negative Control #2 siRNA, then log10 transformed. […]
About 1,400 (4.5%) of roughly 31,000 sequences were called active. The full list was thinned out, with actives kept by preference.
Listing of entries alongside the reported median seed-adjusted z-score.
When you answer, write just the number.

Would you please look over these solved cases?
>  <record_sequence>
CCAGUGCUCCCGAAACUGATT against KRTAP5-5

>  <value_kind>
median seed-adjusted z-score

>  <measured_number>
-1.07

$$$$
>  <record_sequence>
CGAAAAACCAUAGACUACATT against WDR33

>  <value_kind>
median seed-adjusted z-score

>  <measured_number>
3.27

$$$$
>  <record_sequence>
CCAAGAAACUAACACGCUATT against PFKFB2

>  <value_kind>
median seed-adjusted z-score

>  <measured_number>
0.311

$$$$
>  <record_sequence>
CGUGGGAUGCUCAAAGAUATT against EZR

>  <value_kind>
median seed-adjusted z-score

>  <measured_number>
0.0344

$$$$
>  <record_sequence>
GAAGGAUGGGUGGACGUAATT against NALCN

>  <value_kind>
median seed-adjusted z-score

>  <measured_number>
-0.266

$$$$
>  <record_sequence>
GCACCAUAGACUUUCGGGATT against HPCA

>  <value_kind>
median seed-adjusted z-score

>  <measured_number>
0.12

$$$$

// median seed-adjusted z-score lookup, sequence = CCAGGCUAUUUGUACCGAUTT against CCR6 , result: 0.103

// median seed-adjusted z-score lookup, sequence = CAAGGACAACUCAAACUUATT against PRKACA , result: -0.137

// median seed-adjusted z-score lookup, sequence = GCAAUGCCCUUUUCACCGATT against SERPINA5 , result: -1.01

// median seed-adjusted z-score lookup, sequence = CGAGCUACACUGUCCACUUTT against CSGLCA-T , result: 0.146

Reference source: PubChem BioAssay AID1347426
